FYI, the data here is from paper PMC9598926.

measured on: mushroom tyrosinase
assay method text: Mushroom tyrosinase inhibition in the presence of L-dopa
Type: biochemical
condition info: L-dopa as substrate
pIC50: −log10 of the molar value.
measurement label: pIC50

1. O=C1/C(=C/c2ccc(O)cc2O)SC(=S)N1C1CCCCC1
2. O=C1/C(=C/c2ccc(O)c(O)c2)SC(=S)N1C1CCCCC1
Data request: Recorded pIC50 values differ for 1 and 2 ; which one is higher? Lab log: write the label of the selected item as the result.
Data returned: 1

* * *

measured on: mushroom tyrosinase
assay method text: Mushroom tyrosinase activity assay (L-tyrosine as substrate)
Type: biochemical
condition info: mushroom tyrosinase, means ± SEMs of triplicate determinations
pIC50: −log10 of the molar value.
measurement label: pIC50

O=C1/C(=C/c2ccc(O)cc2)SC(=S)N1C1CCCCC1
4.18

P. O=C1/C(=C/c2ccc(O)cc2O)SC(=S)N1C1CCCCC1
Q. O=C1/C(=C/c2ccc(O)c(O)c2)SC(=S)N1C1CCCCC1
Data request: Looking only at measured pIC50, which entry is lower, P or Q ? Lab log: write the label of the selected item as the result.
Data returned: Q
(Q: 5.28, P: 5.99)

* * *

assay method text: ABTS cation radical scavenging activity assay
condition info: test sample 100 µM, 2 min in the dark
measurement label: ABTS radical scavenging activity (%)
Record the value in %, omitting the unit from your answer.

Worked set:
COc1cc(/C=C2\SC(=S)N(C3CCCCC3)C2=O)ccc1O [Analog 4]
57.7
COc1ccc(/C=C2\SC(=S)N(C3CCCCC3)C2=O)cc1O [Analog 5]
43.5
O=C1/C(=C/c2ccc(O)c(O)c2)SC(=S)N1C1CCCCC1 [Analog 2]
81.0

Data request: Name the reported ABTS radical scavenging activity value associated with the compound Cc1c(C)c2c(c(C)c1O)CCC(C)(C(=O)O)O2 (stereo not drawn) [Trolox, reference compound]
Data returned: 79.8

Data request: Name the reported ABTS radical scavenging activity value associated with the compound COc1cc(/C=C2\SC(=S)N(C3CCCCC3)C2=O)cc(OC)c1O [Analog 6]
Data returned: 46.9

Data request: Name the reported ABTS radical scavenging activity value associated with the compound O=C1/C(=C/c2ccc(O)cc2O)SC(=S)N1C1CCCCC1 [Analog 3]
Data returned: 72.1

* * *

measured on: mushroom tyrosinase
assay method text: Mushroom tyrosinase activity assay (L-tyrosine as substrate)
Format: biochemical
condition info: mushroom tyrosinase, means ± SEMs of triplicate determinations
measurement label: IC50 (µM)

COc1ccc(/C=C2\SC(=S)N(C3CCCCC3)C2=O)cc1O [Analog 5]
55
O=C1/C(=C/c2ccc(O)c(Br)c2)SC(=S)N1C1CCCCC1 [Analog 7]
66.2

* * *

This section presents molecules with their documented ABTS radical scavenging activity values.
assay method text: ABTS cation radical scavenging activity assay
condition info: test sample 100 µM, 2 min in the dark

Worked set:
O=C1/C(=C/c2ccc(O)cc2)SC(=S)N1C1CCCCC1
16.6–24.8%
O=C1/C(=C/c2cc(Br)c(O)c(Br)c2)SC(=S)N1C1CCCCC1
16.6–24.8%

# ---- query molecule ----
Data request: Name the reported ABTS radical scavenging activity value associated with the molecule O=C1/C(=C/c2ccc(O)c(Br)c2)SC(=S)N1C1CCCCC1
Data returned: 16.6–24.8%

* * *

measured on: mushroom tyrosinase
assay method text: Mushroom tyrosinase activity assay (L-tyrosine as substrate)
Type: biochemical
condition info: mushroom tyrosinase, means ± SEMs of triplicate determinations
Procedure: 2.2. […] In brief, 20 µL of an aqueous mushroom tyrosinase solution (1000 units/mL) and 170 µL of a substrate mixture containing 345 µM of L-tyrosine and 17.2 mM of sodium phosphate buffer (pH 6.5) were added to wells of a 96-well microplate. […] Amounts of dopachrome produced were assessed by measuring optical densities at 475 nm using a microplate reader (VersaMax®, Molecular Devices, Sunnyvale, CA, USA). […] Experiments were independently conducted three times.
pIC50: −log10 of the molar value.
measurement label: pIC50

COc1cc(/C=C2\SC(=S)N(C3CCCCC3)C2=O)ccc1O
< 3.70
COc1cc(/C=C2\SC(=S)N(C3CCCCC3)C2=O)cc(OC)c1O
< 3.70

Data request: Name the reported pIC50 value associated with the molecule O=C1/C(=C/c2cc(Br)c(O)c(Br)c2)SC(=S)N1C1CCCCC1
Data returned: < 3.70
